# Assayed system: F508delCFTR (Homo sapiens, UniProt P13569, DEL508-508)
# Construct: expressed in transfected cells; host or cells: CFBE41o- (human lung derived epithelial cell line), doxycycline-inducible expression
# Sequence (P13569 with tags, fused parts or gaps DEL508-508): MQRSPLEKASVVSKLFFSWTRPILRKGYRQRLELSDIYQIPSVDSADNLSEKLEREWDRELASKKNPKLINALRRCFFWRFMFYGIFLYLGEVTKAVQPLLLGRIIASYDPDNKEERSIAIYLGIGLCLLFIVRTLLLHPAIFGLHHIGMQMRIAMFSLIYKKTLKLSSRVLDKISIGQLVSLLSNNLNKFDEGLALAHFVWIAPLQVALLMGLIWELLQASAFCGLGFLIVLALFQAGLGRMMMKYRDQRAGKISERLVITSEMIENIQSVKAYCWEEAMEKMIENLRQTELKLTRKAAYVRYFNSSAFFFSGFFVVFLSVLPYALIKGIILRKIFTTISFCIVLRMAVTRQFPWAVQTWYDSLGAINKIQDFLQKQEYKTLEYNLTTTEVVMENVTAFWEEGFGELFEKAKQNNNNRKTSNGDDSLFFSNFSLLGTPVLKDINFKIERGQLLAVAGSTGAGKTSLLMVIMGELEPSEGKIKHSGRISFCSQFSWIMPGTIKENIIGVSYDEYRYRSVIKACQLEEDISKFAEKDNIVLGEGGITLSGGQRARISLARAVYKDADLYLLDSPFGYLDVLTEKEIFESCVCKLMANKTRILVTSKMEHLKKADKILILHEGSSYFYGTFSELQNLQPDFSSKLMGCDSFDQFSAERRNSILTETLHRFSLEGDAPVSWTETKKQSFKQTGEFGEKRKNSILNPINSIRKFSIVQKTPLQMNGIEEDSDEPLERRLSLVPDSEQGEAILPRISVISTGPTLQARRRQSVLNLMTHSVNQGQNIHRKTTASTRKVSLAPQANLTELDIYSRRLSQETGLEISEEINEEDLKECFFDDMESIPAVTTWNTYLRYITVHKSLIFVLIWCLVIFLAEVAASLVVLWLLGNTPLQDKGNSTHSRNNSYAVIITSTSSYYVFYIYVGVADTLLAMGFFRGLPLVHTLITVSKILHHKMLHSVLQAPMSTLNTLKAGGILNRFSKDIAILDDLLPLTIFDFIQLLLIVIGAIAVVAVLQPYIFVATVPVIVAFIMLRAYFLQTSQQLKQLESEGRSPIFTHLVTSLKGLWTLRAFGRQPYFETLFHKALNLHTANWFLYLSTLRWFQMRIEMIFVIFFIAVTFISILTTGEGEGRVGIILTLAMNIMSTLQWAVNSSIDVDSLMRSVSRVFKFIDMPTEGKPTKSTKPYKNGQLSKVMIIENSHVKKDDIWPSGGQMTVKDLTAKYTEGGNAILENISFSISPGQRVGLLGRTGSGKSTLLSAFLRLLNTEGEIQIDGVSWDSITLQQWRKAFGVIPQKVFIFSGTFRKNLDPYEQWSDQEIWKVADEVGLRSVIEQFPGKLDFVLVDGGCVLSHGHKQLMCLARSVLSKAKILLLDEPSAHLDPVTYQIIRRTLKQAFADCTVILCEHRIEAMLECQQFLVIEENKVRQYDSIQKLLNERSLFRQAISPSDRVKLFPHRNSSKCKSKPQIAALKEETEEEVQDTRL
# Assay remarks: Cell Surface Expression-Horse Radish Peroxidase (CSE-HRP) assay
# Assay type: cell-based
# Experimental context: CFBE41o-F508delCFTR-HRP cells; test compound without co-corrector; 18-24 hours at 33° C.; read-out: EC50 (without co-corrector)
pEC50: −log10 of the molar value.
Endpoint label: pEC50

Prompt: State its pEC50 for this compound: COc1ncc(C(F)(F)F)cc1CO[C@H]1[C@H](C(C)(C)C)[C@@H](C(=O)O)N(C(=O)[C@H]2C[C@@H]3CC[C@H]2O3)[C@H]1c1cccc(C(C)(C)C)c1
Completion: > 6.00

Prompt: State its pEC50 for this compound: COc1ccc(C(C)(C)C)cc1CO[C@H]1[C@H](C(C)(C)C)[C@@H](C(=O)O)N(C(=O)[C@@H]2CCCO2)[C@H]1c1ccccc1C1CC1
Completion: 5.00 to 6.00

Prompt: State its pEC50 for this compound: COc1ncc(C(F)(F)F)cc1CO[C@H]1[C@H](C(C)(C)C)[C@@H](C(=O)O)N(C(=O)[C@@H]2CCOC2)[C@H]1c1ccccc1C(C)C
Completion: 5.00 to 6.00

Prompt: State its pEC50 for this compound: COc1cc(C(F)(F)F)ccc1CO[C@H]1[C@H](C(C)(C)C)[C@@H](C(=O)O)N(C(=O)[C@@H]2CCC[C@@H](OC)C2)[C@H]1c1ccccc1
Completion: 5.00 to 6.00

Prompt: State its pEC50 for this compound: COc1ncc(C2CCC2)cc1CO[C@H]1[C@H](C(C)(C)C)[C@@H](C(=O)O)N(C(=O)C2CCCCC2)[C@H]1c1ccccc1C1CC1
Completion: 5.00 to 6.00

Prompt: State its pEC50 for this compound: COc1ncc(C(F)(F)F)cc1CO[C@H]1[C@H](C(C)(C)C)[C@@H](C(=O)O)N(C(=O)OC(C)C)[C@H]1c1cccnc1OC(C)C
Completion: 5.00 to 6.00

Prompt: State its pEC50 for this compound: COc1ccc(C(F)(F)F)cc1COC1[C@@H](c2cccnc2N(C)C)N(C(=O)C2CCCCC2)[C@@H](C(=O)O)[C@@H]1C(C)(C)C (mixture of isomers)
Completion: 5.00 to 6.00
